Quick reference for Predicted CLhep (r) among some compounds
Experiment: Predicted hepatic clearance from hepatic microsomes (rat)
Type: in vitro ADME
observation type: Predicted CLhep (r) (mL/min/kg)

* Cn1cc(-c2cc(CNC(=O)c3cc(-c4ccco4)ccc3Cl)n(C)n2)cn1 | 34.2
* Cc1nc(C2CC2)ccc1CNC(=O)c1cc(-n2cccn2)ccc1Cl | 46.7
* Cn1nc(-c2ccnn2C)cc1CNC(=O)c1cc(-n2cccn2)ccc1Cl | 21.4
* Cc1nc2ccccc2cc1CNC(=O)c1cc(-n2cccn2)ccc1Cl | 47.8
* Cc1nc2c(F)cccc2cc1CNC(=O)c1cc(-n2cccn2)ccc1Cl | 46.8

Ref: paper PMC11843613
